Target: TEC (Homo sapiens (Human), UniProt P42680)
Sequence (P42680 whole entry): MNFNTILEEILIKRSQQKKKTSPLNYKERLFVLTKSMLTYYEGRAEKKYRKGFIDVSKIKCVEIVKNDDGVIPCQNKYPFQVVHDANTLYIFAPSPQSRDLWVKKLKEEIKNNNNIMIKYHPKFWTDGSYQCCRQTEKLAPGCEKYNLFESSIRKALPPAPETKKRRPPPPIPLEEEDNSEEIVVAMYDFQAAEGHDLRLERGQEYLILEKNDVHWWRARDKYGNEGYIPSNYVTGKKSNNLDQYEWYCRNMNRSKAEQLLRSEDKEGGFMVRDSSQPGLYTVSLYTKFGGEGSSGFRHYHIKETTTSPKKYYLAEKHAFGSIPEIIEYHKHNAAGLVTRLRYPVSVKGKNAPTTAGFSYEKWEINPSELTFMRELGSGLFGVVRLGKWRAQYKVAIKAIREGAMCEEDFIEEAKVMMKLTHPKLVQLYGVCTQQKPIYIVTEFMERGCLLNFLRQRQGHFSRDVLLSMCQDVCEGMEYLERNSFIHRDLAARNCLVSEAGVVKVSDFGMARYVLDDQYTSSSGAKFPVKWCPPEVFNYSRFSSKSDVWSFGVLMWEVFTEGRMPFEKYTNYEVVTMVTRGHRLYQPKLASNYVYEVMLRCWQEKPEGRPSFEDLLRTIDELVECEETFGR
Test: Kinase inhibition TEC
Format: biochemical
Can you tell me Kinase inhibition (% control, 1000 nM compound) TEC for the items I'm about to list?
Give just the number in % control; leave the unit off.

Please look up its Kinase inhibition (% control, 1000 nM compound) TEC: C=CC(=O)Nc1cc(Nc2nccc(N(C)C(=O)Oc3ccccc3)n2)c(OC)cc1N(C)CCN(C)C [Compound 80A]
90

Try C=CC(=O)Nc1cccc(N(C(=O)OCc2ccccc2)c2ccnc(Nc3cnn(C)c3)n2)c1 [Compound 83A] next.
5.7

Try `C=CC(=O)Nc1cccc(N(C(=O)NCc2ccccc2)c2cc(Nc3ccc(N4CCN(C)CC4)cc3OC)ncn2)c1` next.
55

Try `C=CC(=O)Nc1cccc(N(C(=O)OCc2ccccc2)c2ccnc(Nc3ccc(N4CCN(C)CC4)cc3OC)n2)c1` next.
83

###

Target: EGFR Del/T790M Ba/F3 cells (Homo sapiens, UniProt P00533, T790M, cells depend on it, form not given)
Experiment: Ba/F3 cell growth inhibition (MTS assay), EGFR Del/T790M
Type: cell-based
Conditions: 100 nM drug; Table G
PROPERTY: EGFR activity (% Control, 100 nM drug) Del/T790M (% Control)
Give just the number in % Control; leave the unit off.

Please look up its EGFR activity (% Control, 100 nM drug) Del/T790M: C=CC(=O)N1CC[C@@H](CN(C(=O)Nc2ccccc2)c2cc(Nc3ccc(N4CCN(C)CC4)cc3OC)ncn2)C1 [Compound 32A]
106

Try C=CC(=O)Nc1cccc(N(C(=O)Nc2ccccc2)c2cc(Nc3ccc(N4CCN(C)CC4)cc3)ncn2)c1 [Compound 25A] next.
53

Try C=CC(=O)N1CCC[C@H]1C(=O)Nc1cc2c(N(C)C(=O)NCc3ccccc3)ncnc2cc1OC [Compound 5A] next.
110

Try COc1cc2ncnc(N(C)C(=O)Nc3ccccc3)c2cc1NC(=O)[C@@H]1CCCN1C(=O)CCl [Compound 28A] next.
83

Try C=CC(=O)Nc1cccc(Nc2cc(N(C(=O)NCc3ccccc3)c3ccc(N4CCN(C)CC4)cc3)ncn2)c1 [Compound 30A] next.
104

Try C=CC(=O)N1CCC[C@H]1C(=O)Nc1ccc(OC)c(Nc2cc(N(C)C(=O)NCc3ccccc3)ncn2)c1 [Compound 23A] next.
102

Try C=CC(=O)N1CCC[C@H]1C(=O)Nc1cc2c(N(CCOC)C(=O)NCc3ccccc3)ncnc2cc1OC [Compound 31A] next.
110

###

Target: ITK (Homo sapiens (Human))
Sequence (Q08881 whole entry): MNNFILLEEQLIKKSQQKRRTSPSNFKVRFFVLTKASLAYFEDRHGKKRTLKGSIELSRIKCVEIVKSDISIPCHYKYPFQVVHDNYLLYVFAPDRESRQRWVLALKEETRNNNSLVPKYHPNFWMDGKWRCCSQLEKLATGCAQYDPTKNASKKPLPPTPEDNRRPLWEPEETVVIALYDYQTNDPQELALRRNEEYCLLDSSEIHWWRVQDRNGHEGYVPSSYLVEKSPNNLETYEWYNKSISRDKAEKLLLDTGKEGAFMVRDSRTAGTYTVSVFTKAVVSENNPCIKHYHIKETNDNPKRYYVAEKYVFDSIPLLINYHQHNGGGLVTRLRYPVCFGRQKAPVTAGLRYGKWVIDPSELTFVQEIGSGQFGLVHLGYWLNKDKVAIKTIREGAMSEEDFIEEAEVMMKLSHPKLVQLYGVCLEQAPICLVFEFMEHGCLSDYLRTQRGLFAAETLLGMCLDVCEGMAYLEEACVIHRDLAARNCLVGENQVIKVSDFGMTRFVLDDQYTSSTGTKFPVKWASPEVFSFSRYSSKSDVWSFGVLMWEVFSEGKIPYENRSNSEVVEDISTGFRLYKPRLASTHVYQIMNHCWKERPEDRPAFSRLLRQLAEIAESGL
Test: Kinase inhibition ITK
Assay type: biochemical
Can you tell me Kinase inhibition (% control, 1000 nM compound) ITK for the items I'm about to list?
Give just the number in % control; leave the unit off.

Kinase inhibition (% control, 1000 nM compound) ITK of C=CC(=O)Nc1cccc(N(C(=O)OCc2ccccc2)c2ccnc(Nc3cnn(C)c3)n2)c1 [Compound 83A] on ITK (Homo sapiens (Human))?
66

Try C=CC(=O)Nc1cccc(N(C(=O)NCc2ccccc2)c2cc(Nc3ccc(N4CCN(C)CC4)cc3OC)ncn2)c1 [Compound 3A] next.
100

Try C=CC(=O)Nc1cccc(N(C(=O)OCc2ccccc2)c2ccnc(Nc3ccc(N4CCN(C)CC4)cc3OC)n2)c1 [Compound 4A] next.
100

Try C=CC(=O)Nc1cc(Nc2nccc(N(C)C(=O)Oc3ccccc3)n2)c(OC)cc1N(C)CCN(C)C [Compound 80A] next.
94

###

Target: EGFR Del Ba/F3 cells (Homo sapiens, UniProt P00533, cells depend on it, form not given)
Assay: Ba/F3 cell growth inhibition (MTS assay), EGFR Del
Assay type: cell-based
Settings: 1.0 μM drug; Assay 2
Method: The specific cDNAs encoding the oncogenic alterations (EGFR: Del 19, L858R, L718Q, L844V, Del/T790M, L858R/T790M, Del 19/L718Q, Del 19/L844V, Del 19/T790M/L718Q and L858R/T790M/L718Q; FGFR: TEL-FGFR1, TEL-FGFR2, TEL-FGFR1 V561M, TEL-FGFR2 V561M; ALK: EML4-ALK; ROS1: CD74-ROS1) were cloned into the pDNA-Dual (BD Biosciences) vector using standard molecular biology techniques. […] Growth and inhibition of growth was assessed by MTS assay. […]
Can you tell me EGFR activity (% Control, 1.0 μM drug) Assay 2 Del for the items I'm about to list?
Give just the number in % Control; leave the unit off.

Please look up its EGFR activity (% Control, 1.0 μM drug) Assay 2 Del: `C=CC(=O)Nc1cccc(N(C(=O)NCc2ccccc2)c2cc(Nc3ccc(N4CCN(C)CC4)cc3OC)ncn2)c1`
1

Try C=CC(=O)Nc1cccc(N(C(=O)Oc2ccccc2)c2ccnc(Nc3ccc(N4CCN(C)CC4)cc3OC)n2)c1 [Compound 10A] next.
1

Try `C=CC(=O)Nc1ccc(OC)c(Nc2cc(N(C(=O)Nc3c(C)cccc3C)c3ccc(N4CCN(CC)CC4)cc3)ncn2)c1` next.
4

Try `C=CC(=O)Nc1ccc(OC)c(N(C(=O)Nc2c(C)cccc2C)c2cc(Nc3ccc(N4CCN(CC)CC4)cc3)ncn2)c1` next.
72

Try C=CC(=O)Nc1cccc(N(C(=O)Nc2ccccc2Cl)c2cc(Nc3ccc(N4CCN(C)CC4)cc3OC)ncn2)c1 [Compound 11A] next.
4

Try `C=CC(=O)Nc1cccc(N(C(=O)Nc2ccccc2)c2cc(Nc3ccc(N4CCN(C)CC4)cc3OC)ncn2)c1` next.
0

###

Target: EGFR L718Q/L858R Ba/F3 cells (Homo sapiens (Human), UniProt P00533, L718Q/L858R)
Assay: Ba/F3 cell growth inhibition (MTS assay), EGFR L858R/L718Q
Assay type: cell-based
Details: Assay 2; L718Q/L858R; read-out: EGFR Ba/F3 cells IC 50 (nM) Assay 2 L718Q/L858R
PROPERTY: IC50 (nM)
Give just the number in nM; leave the unit off.

Please look up its IC50: `C=CC(=O)Nc1cccc(N(C(=O)Nc2ccccc2)c2cc(Nc3ccc(N4CCN(C)CC4)cc3OC)ncn2)c1`
149

###

Target: EGFR L858R/T790M Ba/F3 cells (Homo sapiens (Human), UniProt P00533, L858R/T790M)
Assay: Ba/F3 cell growth inhibition (MTS assay), EGFR L858R/T790M
Type: cell-based
Details: Assay 1; L858R/T790M; read-out: EGFR Ba/F3 cells IC 50 (nM) Assay 1 L858R/T790M
Can you tell me IC50 for the items I'm about to list?
Give just the number in nM; leave the unit off.

IC50 of C=CC(=O)Nc1cccc(N(C(=O)NCc2cccs2)c2cc(Nc3ccc(N4CCOCC4)cc3OC)ncn2)c1 [Compound 55A] on EGFR L858R/T790M Ba/F3 cells (Homo sapiens (Human), UniProt P00533, L858R/T790M)?
2.4

Try `C=CC(=O)Nc1cccc(N(C(=O)Nc2ccccc2)c2cc(Nc3ccc(N4CCN(C)CC4)cc3OC)ncn2)c1` next.
3.1

Try C=CC(=O)Nc1ccc(OC)c(Nc2cc(N(C)C(=O)Nc3ccccc3)ncn2)c1 [Compound 74A] next.
215

Try C=CC(=O)Nc1cccc(N(C(=O)Oc2ccccc2)c2ccnc(Nc3ccc(N4CCN(C)CC4)cc3OC)n2)c1 [Compound 10A] next.
14.8

Try C=CC(=O)Nc1cccc(N(C(=O)N[C@@H](C)c2ccccc2)c2cc(Nc3ccc(N4CCN(C)CC4)cc3OC)ncn2)c1 [Compound 34A] next.
20

Try `C=CC(=O)Nc1cccc(N(C(=O)OCc2ccccc2)c2ccnc(Nc3ccc(N4CCN(C)CC4)cc3OC)n2)c1` next.
7.6

Try C=CC(=O)Nc1cccc(N(C(=O)NCc2ccccc2)c2cc(NC)ncn2)c1 [Compound 15A] next.
376

Try C=CC(=O)Nc1cccc(Nc2cc(N(C)C(=O)NCc3ccccc3)ncn2)c1 [Compound 17A] next.
275

Try C=CC(=O)Nc1cccc(N(C(=O)NCc2ccccc2)c2cc(Nc3ccc(N4CCN(C)CC4)cc3OC)nc(Cl)n2)c1 [Compound 78A] next.
41.8

Try COc1ccc(NC(=O)/C=C/CN(C)C)cc1Nc1cc(N(C)C(=O)Nc2ccccc2)ncn1 [Compound 20A] next.
99.1

###

Biological target: EGFR L858R Ba/F3 cells (Homo sapiens (Human), UniProt P00533, L858R)
Assay: Ba/F3 cell growth inhibition (MTS assay), EGFR L858R
Assay type: cell-based
Settings: Assay 1; L858R; read-out: EGFR Ba/F3 cells IC 50 (nM) Assay 1 L858R
PROPERTY: IC50 (nM)
Give just the number in nM; leave the unit off.

Please look up its IC50: `C=CC(=O)Nc1cccc(N(C(=O)OCc2ccccc2)c2ccnc(Nc3ccc(N4CCN(C)CC4)cc3OC)n2)c1`
0.5

Try C=CC(=O)Nc1cccc(N(C(=O)NCc2ccccc2)c2cc(Nc3ccc(N4CCN(C)CC4)cc3OC)nc(Cl)n2)c1 [Compound 78A] next.
2.66

Try C=CC(=O)Nc1cccc(N(C(=O)Oc2ccccc2)c2ccnc(Nc3ccc(N4CCN(C)CC4)cc3OC)n2)c1 [Compound 10A] next.
1.52

Try C=CC(=O)Nc1cccc(N(C(=O)NCc2cccs2)c2cc(Nc3ccc(N4CCOCC4)cc3OC)ncn2)c1 [Compound 55A] next.
0.5

Try C=CC(=O)Nc1ccc(OC)c(Nc2cc(N(C)C(=O)Nc3ccccc3)ncn2)c1 [Compound 74A] next.
0.572

Try `C=CC(=O)Nc1cccc(N(C(=O)Nc2ccccc2)c2cc(Nc3ccc(N4CCN(C)CC4)cc3OC)ncn2)c1` next.
1.56

Try C=CC(=O)Nc1cccc(Nc2cc(N(C)C(=O)NCc3ccccc3)ncn2)c1 [Compound 17A] next.
7.62

src = patent US10906878B2
